// endpoint pIC50 / system UniProt:P04746
Sequence (P04746 16-511): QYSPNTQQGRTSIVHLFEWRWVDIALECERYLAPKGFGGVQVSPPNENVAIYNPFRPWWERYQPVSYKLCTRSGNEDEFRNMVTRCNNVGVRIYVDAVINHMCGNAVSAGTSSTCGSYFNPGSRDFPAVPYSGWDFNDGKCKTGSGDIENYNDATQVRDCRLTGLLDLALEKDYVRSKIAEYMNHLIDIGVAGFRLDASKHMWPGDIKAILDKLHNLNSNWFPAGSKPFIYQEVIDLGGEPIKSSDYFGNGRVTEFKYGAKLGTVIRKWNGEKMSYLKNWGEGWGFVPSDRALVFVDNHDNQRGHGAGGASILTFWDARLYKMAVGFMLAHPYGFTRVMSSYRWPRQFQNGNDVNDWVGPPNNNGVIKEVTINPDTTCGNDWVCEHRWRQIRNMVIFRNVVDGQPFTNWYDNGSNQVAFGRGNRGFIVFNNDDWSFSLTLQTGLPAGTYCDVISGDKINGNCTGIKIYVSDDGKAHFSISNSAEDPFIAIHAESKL
pIC50: −log10 of the molar value.

>  <compound>
O=C(Cn1cc(CNC(=O)c2cc3ccccc3[nH]2)nn1)Nc1ccc(Br)cc1 [Compound 5k]

>  <target_or_test_system>
UniProt:P04746

>  <property_measured>
pIC50

>  <measured>
< 3.82

$$$$

[in] Sample O=C(Cn1cc(CNC(=O)c2cc3ccccc3[nH]2)nn1)Nc1ccc(Cl)cc1Cl [Compound 5j] — what was its pIC50?
[out] < 3.82

###

# target_or_test_system: α-glucosidase (Saccharomyces cerevisiae)
# Sequence (P53341 whole entry): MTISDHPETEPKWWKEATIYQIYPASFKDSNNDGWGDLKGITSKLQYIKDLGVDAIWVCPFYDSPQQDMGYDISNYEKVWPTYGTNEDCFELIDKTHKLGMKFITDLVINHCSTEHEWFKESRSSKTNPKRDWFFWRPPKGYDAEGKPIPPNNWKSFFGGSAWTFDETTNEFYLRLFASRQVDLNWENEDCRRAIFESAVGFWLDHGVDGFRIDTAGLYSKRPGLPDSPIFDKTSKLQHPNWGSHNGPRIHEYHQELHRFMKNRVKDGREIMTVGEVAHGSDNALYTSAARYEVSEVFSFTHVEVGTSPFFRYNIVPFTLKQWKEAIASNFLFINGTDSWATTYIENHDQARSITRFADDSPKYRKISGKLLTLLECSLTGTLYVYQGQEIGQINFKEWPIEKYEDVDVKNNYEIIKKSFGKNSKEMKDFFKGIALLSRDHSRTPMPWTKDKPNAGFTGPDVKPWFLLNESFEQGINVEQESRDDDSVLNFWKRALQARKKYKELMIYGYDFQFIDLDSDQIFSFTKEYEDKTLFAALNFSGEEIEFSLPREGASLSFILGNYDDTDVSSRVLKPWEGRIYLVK
# experimental_details: Kinetics of α-glucosidase inhibition (Lineweaver–Burk plot and secondary plot)
# Assay type: biochemical, yeast
# experimental_setup: secondary plot of Lineweaver–Burk plots
# Description: As the result, with increasing concentration of compound 5k, Vmax values remained constant while Km values increased. In vitro assays (inhibition effects and kinetics) of the new compounds 5a–n performed according to pervious reported work[15] (Supplementary Information S1).
property_measured: pKi
Value format note: pKi is -log10 of concentration (mol/L); just state the number.

[in] What value of pKi has been recorded for this entry: O=C(Cn1cc(CNC(=O)c2cc3ccccc3[nH]2)nn1)Nc1ccc(Br)cc1
[out] 4.59
